Test system: Klebsiella pneumonia CMCC46117
testParameters: CMCC46117, 16 h
Non-standard residues stand in square brackets, D forms with d. Residues, ends and D or L forms follow the SMILES beside them.

[
  {
    "compound": "CC(C)C[C@H](NC(=O)[C@H](CC(C)C)NC(=O)[C@H](CCCNC(=N)N)NC(=O)[C@H](CC(C)C)NC(=O)[C@H](CC(C)C)NC(=O)[C@H](CCCNC(=N)N)NC(=O)[C@H](CCCNC(=N)N)NC(=O)CNC(=O)[C@H]1CCCN1C(=O)[C@H](CCCNC(=N)N)NC(=O)[C@H](CCCNC(=N)N)NC(=O)[C@H](CC(C)C)NC(=O)[C@H](CC(C)C)NC(=O)[C@H](CCCNC(=N)N)NC(=O)[C@H](CC(C)C)NC(=O)[C@@H](N)CC(C)C)C(N)=O [LRpG] (H-LLRLLRR[dP]GRRLLRLL-NH2)",
    "measurementTarget": "Klebsiella pneumonia CMCC46117",
    "unitsSymbol": "µM",
    "MIC": 4
  },
  {
    "compound": "CC[C@H](C)[C@H](N)C(=O)N[C@H](C(=O)N[C@@H](CCCNC(=N)N)C(=O)N[C@H](C(=O)N[C@H](C(=O)N[C@@H](CCCNC(=N)N)C(=O)N[C@@H](CCCNC(=N)N)C(=O)N1CCC[C@@H]1C(=O)NCC(=O)N[C@@H](CCCNC(=N)N)C(=O)N[C@@H](CCCNC(=N)N)C(=O)N[C@H](C(=O)N[C@H](C(=O)N[C@@H](CCCNC(=N)N)C(=O)N[C@H](C(=O)N[C@H](C(N)=O)[C@@H](C)CC)[C@@H](C)CC)[C@@H](C)CC)[C@@H](C)CC)[C@@H](C)CC)[C@@H](C)CC)[C@@H](C)CC [IRpG] (H-IIRIIRR[dP]GRRIIRII-NH2)",
    "measurementTarget": "Klebsiella pneumonia CMCC46117",
    "unitsSymbol": "µM",
    "MIC": 32
  },
  {
    "compound": "N=C(N)NCCC[C@H](NC(=O)CNC(=O)[C@H]1CCCN1C(=O)[C@H](CCCNC(=N)N)NC(=O)[C@H](CCCNC(=N)N)NC(=O)[C@H](Cc1ccccc1)NC(=O)[C@H](Cc1ccccc1)NC(=O)[C@H](CCCNC(=N)N)NC(=O)[C@H](Cc1ccccc1)NC(=O)[C@@H](N)Cc1ccccc1)C(=O)N[C@@H](CCCNC(=N)N)C(=O)N[C@@H](Cc1ccccc1)C(=O)N[C@@H](Cc1ccccc1)C(=O)N[C@@H](CCCNC(=N)N)C(=O)N[C@@H](Cc1ccccc1)C(=O)N[C@@H](Cc1ccccc1)C(N)=O [FRpG] (H-FFRFFRR[dP]GRRFFRFF-NH2)",
    "measurementTarget": "Klebsiella pneumonia CMCC46117",
    "unitsSymbol": "µM",
    "MIC": 16
  },
  {
    "compound": "CC(C)C[C@H](NC(=O)CN)C(=O)N[C@@H](CCCNC(=N)N)C(=O)N[C@@H](CC(C)C)C(=O)N[C@@H](CC(C)C)C(=O)N[C@@H](CCCNC(=N)N)C(=O)N[C@@H](CCCNC(=N)N)C(=O)N[C@@H](CC(C)C)C(=O)N[C@@H](CC(C)C)C(=O)N[C@@H](CCCNC(=N)N)C(=O)N[C@@H](CCCNC(=N)N)C(=O)N[C@@H](CC(C)C)C(=O)N[C@@H](CC(C)C)C(=O)N[C@@H](CCCNC(=N)N)C(=O)N[C@@H](CC(C)C)C(=O)N1CCC[C@@H]1C(N)=O [LRα] (H-GLRLLRRLLRRLLRL[dP]-NH2)",
    "measurementTarget": "Klebsiella pneumonia CMCC46117",
    "unitsSymbol": "µM",
    "MIC": 4
  }
]
